IC50 by entry:
# TESTED ON: UniProt P29375
# Sequence (P29375 1-1090): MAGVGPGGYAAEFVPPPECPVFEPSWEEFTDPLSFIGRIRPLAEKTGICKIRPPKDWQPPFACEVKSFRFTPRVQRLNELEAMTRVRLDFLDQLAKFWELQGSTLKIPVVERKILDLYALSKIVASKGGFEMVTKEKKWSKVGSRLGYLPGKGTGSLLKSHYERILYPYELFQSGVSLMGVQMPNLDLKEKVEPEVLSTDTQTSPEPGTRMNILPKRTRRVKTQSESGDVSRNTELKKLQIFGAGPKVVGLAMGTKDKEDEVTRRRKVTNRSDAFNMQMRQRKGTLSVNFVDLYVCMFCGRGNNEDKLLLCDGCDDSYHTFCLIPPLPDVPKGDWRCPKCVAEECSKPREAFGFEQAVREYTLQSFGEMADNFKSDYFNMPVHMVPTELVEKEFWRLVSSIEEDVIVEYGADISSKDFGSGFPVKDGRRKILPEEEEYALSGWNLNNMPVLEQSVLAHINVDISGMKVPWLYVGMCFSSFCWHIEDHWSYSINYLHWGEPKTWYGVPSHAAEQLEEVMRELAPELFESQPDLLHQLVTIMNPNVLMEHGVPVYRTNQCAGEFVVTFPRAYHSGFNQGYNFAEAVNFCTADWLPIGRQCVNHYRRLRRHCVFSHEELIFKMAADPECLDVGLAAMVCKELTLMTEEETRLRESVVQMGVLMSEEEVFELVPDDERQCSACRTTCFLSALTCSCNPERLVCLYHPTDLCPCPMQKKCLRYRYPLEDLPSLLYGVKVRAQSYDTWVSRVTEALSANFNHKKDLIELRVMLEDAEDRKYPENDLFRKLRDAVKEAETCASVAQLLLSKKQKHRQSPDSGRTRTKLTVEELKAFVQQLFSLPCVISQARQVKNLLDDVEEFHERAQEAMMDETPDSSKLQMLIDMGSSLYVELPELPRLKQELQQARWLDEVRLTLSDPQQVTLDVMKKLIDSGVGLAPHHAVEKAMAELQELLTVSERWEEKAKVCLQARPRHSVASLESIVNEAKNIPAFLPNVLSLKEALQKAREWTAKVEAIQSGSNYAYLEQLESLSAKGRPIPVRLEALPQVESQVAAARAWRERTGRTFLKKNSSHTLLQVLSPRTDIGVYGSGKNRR

Solved entries:
What is its IC50 for UniProt P29375? Entry: "COCCOc1cc(Cl)ccc1COc1ccnn1-c1cc(C(=O)O)ccn1" < 100 nM

Recall the recorded IC50 for "O=C(O)c1ccnc(-n2nccc2OCc2ccc(C3CC3)c(Cl)c2)c1" with UniProt P29375 and state it. 100 to 1000 nM

Under UniProt P29375: IC50 value of "Cc1ccc(COc2ccnn2-c2cc(C(=O)O)ccn2)c(Cl)c1" ? 100 to 1000 nM

Find the measured IC50: item "O=C(O)c1ccnc(-n2nc(-c3ccccc3F)cc2O)c1" , target or system UniProt P29375. 1000 to 10000 nM

Please state recorded IC50 (tested on UniProt P29375) of "CC(C)COc1cc(Cl)ccc1COc1ccnn1-c1cc(C(=O)O)ccn1" 100 to 1000 nM

I'm curious: which IC50 was measured for "O=C(O)c1ccnc(-n2nccc2OCc2ccc(Cl)cc2OCC(F)(F)F)c1" tested on UniProt P29375? < 100 nM

New cases:
Provide value of IC50 for this record tested with UniProt P29375: "O=C(O)c1ccnc(-n2nc(COc3ccccc3)cc2O)c1" 1000 to 10000 nM

Requested read-out IC50, target or system UniProt P29375, entry "O=C(O)c1ccnc(-n2nccc2-c2cccc(O)c2)c1" 100 to 1000 nM
